Molecular target: human D2R/β-arrestin (Homo sapiens (Human))
Assay: cell-based
Settings: cAMP Antagonist, CHO-K1 cells expressing human D2R/β-arrestin; antagonist mode, 2.5 μM forskolin and 2.7 nM quinpirole
pIC50: −log10 of the molar value.
MEASUREMENT_KIND: pIC50

{"COMPOUND": "CC1(Oc2ccccc2C(F)(F)F)CCN(CCOc2ccccc2)C1 (stereo not shown)", "TARGET_ENTITY": "human D2R/β-arrestin (Homo sapiens (Human))", "MEASUREMENT_KIND": "pIC50", "RESULT": "5.00 to 6.00"}

Report pIC50 for every entry below.
1. CC1(Oc2ccccc2)CCN(CCOc2ccccn2)CC1
2. OCC1(Cc2ccc(Cl)cc2)CCN(CCOc2ccccc2C(F)(F)F)CC1
3. CC1(Oc2ccc(Cl)cc2)CCN(CCOc2ccc(C(F)(F)F)cc2)C1 (stereo not shown)
4. CC1(Oc2ccc(Cl)cc2)CCN(CCOc2ccccc2Cl)C1 (stereo not shown)
5. CC(=O)N(C)C1(C)CCN(C[C@H]2COc3ccccc3O2)CC1

1: < 4.52; 2: 5.00 to 6.00; 3: 5.00 to 6.00; 4: > 7.00; 5: < 4.52

Report pIC50 for every entry below.
1. CC1(Oc2ccc(Cl)cc2)CCN(CC2COc3ccccc3O2)CC1 (stereo not shown)
2. CC1(Oc2ccccc2)CCN(C(C)(C)COc2ccccc2C(F)(F)F)CC1
3. CC1(Oc2ccc(Cl)cc2)CCN(CCCCOc2ccc3ncsc3c2)C1 (stereo not shown)

< 4.52
5.00 to 6.00
5.00 to 6.00

====

Molecular target: D2 receptor (Homo sapiens (Human), UniProt P14416)
Assay: D2 radioligand binding assay
MEASUREMENT_KIND: Ki

Take a look at these entries with their results.
{"COMPOUND": "CC1(C(=O)Nc2ccccc2)CCN(CC2COc3ccccc3O2)CC1 (single isomer, unassigned) [Compound 204b]", "RESULT": "100 to 1000 nM"}
{"COMPOUND": "CC1(Oc2ccc(Cl)cc2)CCCN(CCOc2ccc3scnc3c2)C1 (centres unmarked)", "RESULT": "100 to 1000 nM"}
{"COMPOUND": "Clc1ccc2c(c1)CC1(CCN(CCOc3ccccc3)C1)O2 (centres unmarked)", "RESULT": "100 to 1000 nM"}
{"COMPOUND": "CC1(Oc2ccc(Cl)cc2)CCN(CCCCOc2ccccc2F)C1 (centres unmarked)", "RESULT": "100 to 1000 nM"}
{"COMPOUND": "CC(=O)NC1(C)CCN(C[C@H]2COc3ccc(Br)cc3O2)CC1", "RESULT": "< 100 nM"}

Report Ki for every entry below.
1. CC1(Oc2ccc(Cl)cc2)CCN(CCOc2ccccc2C(F)(F)F)CC1
2. COC1(C)CCN(CCOc2ccccc2C(F)(F)F)CC1
3. CC1(C(=O)N2CCCC2)CCN(C[C@H]2COc3ccccc3O2)CC1
4. CC1(Oc2ccc(Cl)cc2)CCN(CCOc2ccccc2)C1 (centres unmarked)
5. CC1(Oc2ccc(Cl)cc2)CCN(CCOc2cc(F)ccc2C(F)(F)F)CC1
6. CC(=O)NC1(C)CCN(C[C@H]2COc3ccc(F)cc3O2)CC1
7. CN(c1ccccc1)C1(C)CCN(CCOc2ccccc2C(F)(F)F)CC1

["100 to 1000 nM", "< 100 nM", "100 to 1000 nM", "1000 to 10000 nM", "100 to 1000 nM", "100 to 1000 nM", "100 to 1000 nM"]

====

Would you mind telling me the reported pIC50 of each entry?
Target: human D2R/β-arrestin (Homo sapiens (Human), UniProt P14416)
Sequence (P14416 whole entry): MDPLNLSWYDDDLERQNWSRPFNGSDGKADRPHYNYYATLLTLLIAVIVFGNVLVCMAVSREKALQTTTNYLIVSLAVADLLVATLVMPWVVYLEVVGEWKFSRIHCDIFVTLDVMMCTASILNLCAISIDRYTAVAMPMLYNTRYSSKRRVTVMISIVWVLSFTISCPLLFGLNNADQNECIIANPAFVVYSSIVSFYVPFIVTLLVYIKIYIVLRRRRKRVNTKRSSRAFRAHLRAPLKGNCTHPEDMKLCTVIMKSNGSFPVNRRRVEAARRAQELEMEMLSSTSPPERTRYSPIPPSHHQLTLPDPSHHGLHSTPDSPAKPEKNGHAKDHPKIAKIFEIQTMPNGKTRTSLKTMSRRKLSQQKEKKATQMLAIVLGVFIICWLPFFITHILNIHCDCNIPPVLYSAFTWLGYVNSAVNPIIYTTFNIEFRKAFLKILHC
Test: cell-based
Details: β-arrestin Antagonist, CHO-K1 cells expressing human D2R/β-arrestin; antagonist mode, quinpirole 130 nM
pIC50: −log10 of the molar value.

Take a look at these entries with their results.
{"COMPOUND": "CC1(Oc2ccc(Cl)cc2)CCN(CCOc2ccccc2F)C1 (centres unmarked)", "pIC50": "6.00 to 7.00"}
{"COMPOUND": "CC1(Oc2ccc(Cl)cc2)CCN(CCOc2ccc(C(F)(F)F)nc2)CC1", "pIC50": "< 4.52"}
{"COMPOUND": "CC1(Oc2ccc(Cl)cc2)CCN(CCCOc2ccccc2)C1 (centres unmarked)", "pIC50": "5.00 to 6.00"}
{"COMPOUND": "CC1(Oc2ccccc2)CCN(CCOc2ccccc2C(F)(F)F)CC1", "pIC50": "> 7.00"}
{"COMPOUND": "CC1(Oc2ccccc2)CCN(CCCCOc2ccccc2)CC1", "pIC50": "5.00 to 6.00"}

Report pIC50 for every entry below.
1. CC1(Oc2ccc(Cl)cc2)CCN(CCOc2ccccc2Cl)CC1
2. CC1(Cc2ccc(Cl)cc2)CCN(CCOc2ccccc2C(F)(F)F)CC1

["> 7.00", "5.00 to 6.00"]

Report pIC50 for every entry below.
1. CN(CCN1CCC(C)(Oc2ccc(Cl)cc2)CC1)c1ccccc1C(F)(F)F
2. FC1(Cc2ccccc2)CCN(CCOc2ccccc2C(F)(F)F)CC1
3. CC1(Oc2cccnc2)CCN(CCOc2ccccc2)C1 (centres unmarked)

1. 5.00 to 6.00
2. 5.00 to 6.00
3. < 4.52

Form entry - test system: human D2R/β-arrestin (Homo sapiens (Human), UniProt P14416); read-out: pIC50; compound: CC1(Oc2ccccn2)CCN(CCOc2ccccc2)C1 (centres unmarked) 5.00 to 6.00

====

Would you mind telling me the reported IC50 of each entry?
Biological target: human D2R/β-arrestin (Homo sapiens (Human))
Assay: cell-based
Conditions: β-arrestin Antagonist, CHO-K1 cells expressing human D2R/β-arrestin; antagonist mode, quinpirole 130 nM

Take a look at these entries with their results.
{"COMPOUND": "CC1(Oc2ccc(Cl)cc2)CCN(CCOc2ccc(Cl)cc2)CC1", "TARGET_ENTITY": "human D2R/β-arrestin (Homo sapiens (Human))", "RESULT": "> 30000 nM"}
{"COMPOUND": "CC1(Oc2ccccc2Cl)CCN(CCOc2ccccc2)C1 (stereo not drawn)", "TARGET_ENTITY": "human D2R/β-arrestin (Homo sapiens (Human))", "RESULT": "1000 to 10000 nM"}
{"COMPOUND": "CC(O)c1ccc(OCCN2CCC(C)(Oc3ccc(Cl)cc3)CC2)cc1 (stereo not drawn)", "TARGET_ENTITY": "human D2R/β-arrestin (Homo sapiens (Human))", "RESULT": "10000 to 30000 nM"}
{"COMPOUND": "FC(F)(F)c1ccccc1OCCN1CCC2(CC1)CC2c1ccc(Cl)cc1 (single isomer, unassigned) [Compound 216a]", "TARGET_ENTITY": "human D2R/β-arrestin (Homo sapiens (Human))", "RESULT": "1000 to 10000 nM"}
{"COMPOUND": "CC(=O)NC1(C)CCN(C[C@H]2COc3ccc(F)cc3O2)CC1", "TARGET_ENTITY": "human D2R/β-arrestin (Homo sapiens (Human))", "RESULT": "100 to 1000 nM"}
{"COMPOUND": "CC1(Oc2ccc(Cl)cc2)CCCN(C(C)(C)COc2ccccc2)C1 (stereo not drawn)", "TARGET_ENTITY": "human D2R/β-arrestin (Homo sapiens (Human))", "RESULT": "10000 to 30000 nM"}

Report IC50 for every entry below.
1. CC1(Oc2ccc(Cl)cc2)CCN(CCCCOc2ccc3ncsc3c2)C1 (stereo not drawn)
2. CC1(Oc2ccc(Cl)cc2)CCN(CCOc2ccc(C(F)(F)F)cn2)CC1

["1000 to 10000 nM", "> 30000 nM"]

Report IC50 for every entry below.
1. CC1(Oc2ccccc2Cl)CCN(CCOc2ccccc2C(F)(F)F)CC1
2. CC1(Oc2ccc(Cl)cc2)CCN(CCOc2ccc(C(F)(F)F)nc2)C1 (stereo not drawn)
3. CNC(=O)C1(C)CCN(CC2COc3ccccc3O2)CC1 (stereo not drawn) [Compound 202]
4. FC(F)(F)c1ccccc1OCCN1CCC2(CC1)CCN2c1ccccc1
5. CC(C)C1(Oc2ccc(Cl)cc2)CCN(CCOc2ccccc2C(F)(F)F)CC1
6. FC(F)(F)c1ccccc1OCCN1CCC2(CC1)CC2c1ccccc1 (stereo not drawn)
7. CC1(Oc2ccc(Cl)cc2)CCN(CCOc2cn[nH]c2)CC1

100 to 1000 nM
> 30000 nM
100 to 1000 nM
100 to 1000 nM
1000 to 10000 nM
1000 to 10000 nM
1000 to 10000 nM

Report IC50 for every entry below.
1. CC1(Oc2ccccc2)CCN(CCOc2cccc(C(F)(F)F)c2)CC1
2. CC(CO)N1CCC(C)(Oc2ccccc2)CC1 (stereo not drawn)
3. CC1(Oc2ccccc2[N+](=O)[O-])CCN(CCOc2ccccc2)C1 (stereo not drawn)

1. 100 to 1000 nM
2. 10000 to 30000 nM
3. 1000 to 10000 nM
